Measured values drawn from patent US10596185B2 for this set.

The compounds listed here are annotated with their Compare quercetin (EC50 NF-kB).
- Test system: NF-kB
- procedure.summary: NF-kB-luciferase assay system in C2C12 cell line
- Format: cell-based
- details: NF-kB inhibitory activity relative to quercetin

| compound | target | Compare quercetin (EC50 NF-kB) |
| --- | --- | --- |
| C[C@@H]1O[C@@H](OC[C@H]2O[C@@H](Oc3cc(O)c4c(c3)O[C@H](c3ccc(O)c(O)c3)CC4=O)[C@H](O)[C@@H](O)[C@@H]2O)[C@H](O)[C@H](O)[C@H]1O [Eriocitrin, eriodictyol 7-O-B-rutinoside] | NF-kB | 0.35 |
| COc1ccc(-c2cc(=O)c3c(O)cc(O[C@@H]4O[C@H](CO[C@@H]5O[C@@H](C)[C@H](O)[C@@H](O)[C@H]5O)[C@@H](O)[C@H](O)[C@H]4O)cc3o2)cc1O | NF-kB | 0.07 |
| O=C1C[C@@H](c2ccc(O)cc2)Oc2cc(O)cc(O)c21 | NF-kB | 0.78 |
| COc1ccc([C@@H]2CC(=O)c3c(O)cc(O)cc3O2)cc1O | NF-kB | 0.46 |
| COc1ccc([C@@H]2CC(=O)c3c(O)cc(O[C@@H]4O[C@H](CO[C@@H]5O[C@@H](C)[C@H](O)[C@@H](O)[C@H]5O)[C@@H](O)[C@H](O)[C@H]4O)cc3O2)cc1O | NF-kB | 0.09 |
| C[C@@H]1O[C@@H](O[C@H]2[C@H](Oc3cc(O)c4c(c3)O[C@H](c3ccc(O)cc3)CC4=O)O[C@H](CO)[C@@H](O)[C@@H]2O)[C@H](O)[C@H](O)[C@H]1O | NF-kB | 0.07 |
